# System Name: recombinant rat GluN1/GluN2D (Rattus norvegicus, UniProt P35439+Q62645)
# Construct: expressed in transfected cells; host or cells: Xenopus laevis oocytes (Ecocyte) injected with in vitro transcribed cRNA
# Sequence (Q62645 28-1323, other chains not shown): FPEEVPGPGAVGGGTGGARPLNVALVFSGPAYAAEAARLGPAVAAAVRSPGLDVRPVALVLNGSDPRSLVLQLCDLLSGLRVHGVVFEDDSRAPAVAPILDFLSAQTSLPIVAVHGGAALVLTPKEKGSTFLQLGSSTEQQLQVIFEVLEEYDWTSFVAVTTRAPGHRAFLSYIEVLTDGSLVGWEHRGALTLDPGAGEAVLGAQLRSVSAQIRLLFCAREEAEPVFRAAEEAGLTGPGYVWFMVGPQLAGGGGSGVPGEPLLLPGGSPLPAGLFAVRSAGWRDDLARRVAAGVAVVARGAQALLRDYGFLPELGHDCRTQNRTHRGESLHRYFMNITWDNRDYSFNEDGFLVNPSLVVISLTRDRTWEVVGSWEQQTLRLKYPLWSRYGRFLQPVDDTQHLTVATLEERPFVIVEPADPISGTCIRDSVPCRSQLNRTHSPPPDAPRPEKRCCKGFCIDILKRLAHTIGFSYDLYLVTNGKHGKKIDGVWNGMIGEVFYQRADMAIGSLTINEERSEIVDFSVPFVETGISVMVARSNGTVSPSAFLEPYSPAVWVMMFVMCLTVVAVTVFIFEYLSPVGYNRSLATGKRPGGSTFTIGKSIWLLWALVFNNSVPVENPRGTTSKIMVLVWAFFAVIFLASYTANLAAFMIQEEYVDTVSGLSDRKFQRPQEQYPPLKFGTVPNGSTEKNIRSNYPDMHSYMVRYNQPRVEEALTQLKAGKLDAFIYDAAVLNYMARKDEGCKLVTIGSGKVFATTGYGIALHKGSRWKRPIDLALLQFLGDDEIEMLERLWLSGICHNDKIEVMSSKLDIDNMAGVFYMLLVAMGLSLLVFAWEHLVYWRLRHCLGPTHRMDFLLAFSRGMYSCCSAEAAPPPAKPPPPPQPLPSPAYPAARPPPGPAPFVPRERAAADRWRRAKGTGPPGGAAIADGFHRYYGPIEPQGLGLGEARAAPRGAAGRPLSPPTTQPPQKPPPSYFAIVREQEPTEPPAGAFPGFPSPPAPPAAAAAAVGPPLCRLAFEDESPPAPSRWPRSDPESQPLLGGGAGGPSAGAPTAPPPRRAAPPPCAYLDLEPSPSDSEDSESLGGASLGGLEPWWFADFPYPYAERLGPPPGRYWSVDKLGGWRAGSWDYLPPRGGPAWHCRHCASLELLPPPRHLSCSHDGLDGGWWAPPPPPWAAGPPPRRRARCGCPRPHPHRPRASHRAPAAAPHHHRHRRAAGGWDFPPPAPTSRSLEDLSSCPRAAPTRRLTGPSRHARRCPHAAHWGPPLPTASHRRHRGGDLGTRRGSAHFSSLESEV
# Assay Comment: Two-electrode voltage-clamp (TEVC) recordings in Xenopus laevis oocytes, GluN1/GluN2D
# Format: cell-based
# Experimental Setup: untitled tables after drawing 25 and drawing 36; read-out: EC50 (μM) GluN2D
Parameter: EC50 (µM)

A selection of reference data follows.
Compound: COc1ccc(OCC2c3ccc(OC)cc3CCN2C(=O)CCCC(F)(F)F)cc1 (stereo not shown) [1180-252]
System Name: recombinant rat GluN1/GluN2D (Rattus norvegicus, UniProt P35439+Q62645)
EC50 / µM: 14

Compound: COc1ccc(OCC2c3ccc(OC)cc3CCN2C(=O)c2ccc(Cl)s2)cc1 (stereo not shown) [1180-239]
System Name: recombinant rat GluN1/GluN2D (Rattus norvegicus, UniProt P35439+Q62645)
EC50 / µM: 1

1. CC(C)Oc1ccc(OCC2c3ccc(OC(C)C)cc3CCN2C(=S)c2cccc(Cl)c2)cc1 (stereo not shown) [1180-265]
2. COc1ccc(OCC2c3ccc(OC)cc3CCN2C(=O)c2ccc(Cl)o2)cc1 (stereo not shown) [1180-234]
In: Of the pair 1 and 2 , name the member with the lesser recorded EC50. # reply format: chosen label
Out: 1
